Assay system ErbB2 WT (Homo sapiens (Human), UniProt P04626); read-out recorded as IC50.
Your answer is read as nM, so omit the unit and give the number.

Examples with their reported IC50 follow.
INSERT INTO measurements (compound, readout_units, value_measured) VALUES
  ('Cc1cc(Nc2ncnc3cnc(N4C[C@@H]5[C@H](C4)[C@H]4CC[C@@H]5O4)nc23)ccc1Oc1ccc2c(c1)ncn2C', 'nM', 64),
  ('Cc1cc(Nc2ncnc3cnc(N4CCOCC4)nc23)ccc1Oc1ccc2c(c1)ncn2C1CC1 [Example 73, 2,2,2-trifluoroacetate]', 'nM', 163),
  ('Cc1c(Oc2ccn3ncnc3c2)ccc(Nc2ncnc3cnc(N(C)CC(C)(C)O)nc23)c1F', 'nM', 35.1);

Task: Answer briefly: IC50 recorded on ErbB2 WT (Homo sapiens (Human), UniProt P04626) for N#C[C@H]1CCN(c2ncc3ncnc(Nc4ccc(Oc5ccn6ncnc6c5)c(Cl)c4)c3n2)C1
Sequence (P04626 23-1255): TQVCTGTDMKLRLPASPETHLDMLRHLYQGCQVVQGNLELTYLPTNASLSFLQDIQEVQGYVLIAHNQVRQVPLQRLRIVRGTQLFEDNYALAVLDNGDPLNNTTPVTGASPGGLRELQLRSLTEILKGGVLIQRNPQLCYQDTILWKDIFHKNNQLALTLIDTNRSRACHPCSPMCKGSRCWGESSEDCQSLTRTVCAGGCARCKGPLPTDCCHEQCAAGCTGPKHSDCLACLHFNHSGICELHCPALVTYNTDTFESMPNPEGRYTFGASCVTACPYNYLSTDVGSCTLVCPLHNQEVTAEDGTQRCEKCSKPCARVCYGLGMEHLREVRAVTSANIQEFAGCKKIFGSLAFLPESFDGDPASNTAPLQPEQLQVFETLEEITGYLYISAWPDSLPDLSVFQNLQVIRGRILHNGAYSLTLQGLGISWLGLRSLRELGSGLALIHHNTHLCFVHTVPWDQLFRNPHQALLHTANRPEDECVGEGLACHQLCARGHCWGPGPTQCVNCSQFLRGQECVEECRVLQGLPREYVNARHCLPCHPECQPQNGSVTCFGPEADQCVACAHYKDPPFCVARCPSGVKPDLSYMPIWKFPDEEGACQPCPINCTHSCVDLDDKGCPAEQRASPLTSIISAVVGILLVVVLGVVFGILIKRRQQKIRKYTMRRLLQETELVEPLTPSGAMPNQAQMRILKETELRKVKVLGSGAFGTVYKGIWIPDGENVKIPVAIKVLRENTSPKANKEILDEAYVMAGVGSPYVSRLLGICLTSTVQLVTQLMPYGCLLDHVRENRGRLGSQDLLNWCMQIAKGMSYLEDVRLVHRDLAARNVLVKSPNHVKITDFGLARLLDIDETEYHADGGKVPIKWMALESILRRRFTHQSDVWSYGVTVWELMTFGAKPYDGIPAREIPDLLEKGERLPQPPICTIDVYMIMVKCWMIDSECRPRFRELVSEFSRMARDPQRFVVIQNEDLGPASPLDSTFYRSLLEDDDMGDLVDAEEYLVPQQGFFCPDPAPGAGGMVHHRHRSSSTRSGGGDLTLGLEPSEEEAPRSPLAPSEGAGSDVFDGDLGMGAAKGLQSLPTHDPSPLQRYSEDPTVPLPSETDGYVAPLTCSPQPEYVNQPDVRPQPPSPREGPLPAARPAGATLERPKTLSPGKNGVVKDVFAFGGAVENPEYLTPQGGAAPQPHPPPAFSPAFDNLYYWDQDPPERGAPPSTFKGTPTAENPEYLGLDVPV
Output: 64.7

Task: Answer briefly: IC50 recorded on ErbB2 WT (Homo sapiens (Human), UniProt P04626) for Cc1cc(Nc2ncnc3cnc(N4CC(CS(C)(=O)=O)C4)nc23)ccc1Oc1ccc2c(c1)ncn2C
Output: 12.4

Task: Answer briefly: IC50 recorded on ErbB2 WT (Homo sapiens (Human), UniProt P04626) for N#CC[C@@H]1CCN(c2ncc3ncnc(Nc4ccc(Oc5ccn6ncnc6c5)c(Cl)c4)c3n2)C1
Output: 21.5

Task: Answer briefly: IC50 recorded on ErbB2 WT (Homo sapiens (Human), UniProt P04626) for Cc1cc(Nc2ncnc3cnc(NCC4CC4)nc23)ccc1Oc1ccc2c(c1)ncn2C
Output: 130

Task: Answer briefly: IC50 recorded on ErbB2 WT (Homo sapiens (Human), UniProt P04626) for Cn1cnc2cc(Oc3ccc(Nc4ncnc5cnc(N6CC7C8CCC(O8)C7C6)nc45)cc3Cl)ccc21.O=C(O)C(F)(F)F (stereo not shown)
Output: 102

Task: Answer briefly: IC50 recorded on ErbB2 WT (Homo sapiens (Human), UniProt P04626) for Cc1cc(Nc2ncnc3cnc(N4CC[C@@H](C(F)F)C4)nc23)ccc1Oc1ccn2ncnc2c1
Output: 40.7

Task: Answer briefly: IC50 recorded on ErbB2 WT (Homo sapiens (Human), UniProt P04626) for Cc1cc(Nc2ncnc3cnc(N(C)CC(O)C(F)(F)F)nc23)ccc1Oc1ccc2c(c1)ncn2C (stereo not shown)
Output: 27.1

Task: Answer briefly: IC50 recorded on ErbB2 WT (Homo sapiens (Human), UniProt P04626) for Cc1cc(Nc2ncnc3cnc(N4C[C@H]5C[C@@H]4CO5)nc23)ccc1Oc1ccc2c(c1)ncn2C
Output: 116

Task: Answer briefly: IC50 recorded on ErbB2 WT (Homo sapiens (Human), UniProt P04626) for Cc1cc(Nc2ncnc3cnc(N(C)C[C@@H]4COCCO4)nc23)ccc1Oc1ccc2c(c1)ncn2C
Output: 47.5

Task: Answer briefly: IC50 recorded on ErbB2 WT (Homo sapiens (Human), UniProt P04626) for Cc1cc(Nc2ncnc3cnc(N(C)[C@H]4CCC[C@@H]4O)nc23)ccc1Oc1ccc2c(c1)ncn2C
Output: 30.8

Task: Answer briefly: IC50 recorded on ErbB2 WT (Homo sapiens (Human), UniProt P04626) for Cc1cc(Nc2ncnc3cnc(N(C)[C@@H]4CCOC4)nc23)ccc1Oc1ccc2c(c1)ncn2C
Output: 20

Task: Answer briefly: IC50 recorded on ErbB2 WT (Homo sapiens (Human), UniProt P04626) for Cc1cc(Nc2ncnc3cnc(N4C[C@H]5CCCN5C4=O)nc23)ccc1Oc1ccc2c(c1)ncn2C
Output: 180
